test system: UO-31 renal; assay: NCI-60 one-dose screen, 48 h (100 = growth as untreated, 0 = no growth, -100 = all killed); settings: 10 µM unless noted
The panel holds about 83,000 compounds, 20% with a hit somewhere; the sample as a whole holds those more often.
Criterion: growth strictly less than 70%. Met: 1 (yes). Not met: 0 (no).

* Cc1nnc(Nc2ccc(NC(=O)Nc3ccc(Cl)cc3)cc2)c2ccccc12 | 1 (yes)
* c1ccc(N2CCN(c3nncc4ccccc34)CC2)nc1 | 0 (no)
* CC(C)C(=O)Cc1cnccn1 | 0 (no)
* NC(N)=N/N=C(/c1ccccc1)c1ccc(Cl)cc1 | 0 (no)
* Clc1ccc2nc(Cl)c3ccccc3c2c1 | 1 (yes)
* CC(C)c1ccc(C(=O)Nc2sc3c(CN(C)C)c(O)ccc3c2C(N)=O)cc1 | 1 (yes)
* COc1cc(C(=O)/C=C/c2cccnc2Nc2ccccc2)cc(OC)c1OC | 1 (yes)
* O=C(c1ccccc1)c1ccco1 | 0 (no)

Given `N#CCCN(CCO)c1ccccc1` , is recorded growth strictly lower than 70%?
0 (no)

Given `COC(=O)[C@]1(CCSC)N[C@H](c2cn(-c3ccccc3)nc2C)[C@@H]2C(=O)N(c3ccccc3)C(=O)[C@@H]21` , is recorded growth strictly lower than 70%?
0 (no)

Provenance of the data: PubChem BioAssay (NCI)
